Data credit: the supplement of paper PMC11061612

- Tested on: SW1573 (Lung Adenocarcinoma);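 further: after 72 h of two-drug dosing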
- Assay protocol: Bliss excess, mean over the matrix (fraction); higher = more synergy
Measured Bliss excess accompanies every entry in the list below.

{"Molecule": "CN(CCO)CC[C@H](CSc1ccccc1)Nc1ccc(S(=O)(=O)NC(=O)c2ccc(N3CCC([C@@H](O)c4ccccc4-c4ccc(Cl)cc4)CC3)cc2)cc1S(=O)(=O)C(F)(F)F [AZD4320] + C=CCn1c(=O)c2cnc(Nc3ccc(N4CCN(C)CC4)cc3)nc2n1-c1cccc(C(C)(C)O)n1 [AZD1775] (first compound max 1 µM, partner max 1 µM)", "Target or system": "SW1573 (Lung Adenocarcinoma)", "Bliss excess": 0.0152}
{"Molecule": "CN(CCO)CC[C@H](CSc1ccccc1)Nc1ccc(S(=O)(=O)NC(=O)c2ccc(N3CCC([C@@H](O)c4ccccc4-c4ccc(Cl)cc4)CC3)cc2)cc1S(=O)(=O)C(F)(F)F [AZD4320] + CN(C)CCCOc1ccc(-c2ccc3ncc4c(c3c2)n(C2CCOCC2)c(=O)n4C)cn1 [AZD0156] (first compound max 1 µM, 7x7, partner max 1 µM)", "Target or system": "SW1573 (Lung Adenocarcinoma)", "Bliss excess": -0.0585}
{"Molecule": "COc1nnc2ccc(N3CCC(c4ccc(OCCN5CCN(C)C(=O)[C@H]5C)cc4)CC3)nn12 [AZD5153] + CN(CC[C@H](CSC1=CC=CC=C1)NC2=C(C=C(C=C2)S(=O)(=O)NC(=O)C3=CC=C(C=C3)N4CCC(CC4)[C@H](C5=CC=CC=C5C6=CC=C(C=C6)Cl)O)S(=O)(=O)C(F)(F)F)CCO [AZD4320] (first compound max 1 µM, 7x7, partner max 1 µM)", "Target or system": "SW1573 (Lung Adenocarcinoma)", "Bliss excess": 0.089}
